assay: Ratio of effect of compound on the nuclease resistance of full length oligonucleotide to that of wild type in 10% heat-activated fetal calf serum (FCS); format: functional
Ratio reference
No unit in the answer, please; the number alone is enough.

molecular string	attribute measured	numeric readout
CO[C@H]1[C@H](CO)[C@@H](O)C[C@@H]1n1cc(C)c(=O)[nH]c1=O	Ratio	10

Now look at this entry.
Exercise: Identify Ratio associated with the compound `Cc1cn([C@H]2C[C@H](O)[C@@H](CO)[C@@H]2O)c(=O)[nH]c1=O`
Solution: 7

###

test: Difference in melting temperature (Tm) between the modified DNA/RNA duplex and the unmodified wild type (WT) duplex per modification at 61.8 degree Celsius (5'-tCCAGGtGtCCGCAtC-3'); type: functional
ΔTm reference
No unit in the answer, please; the number alone is enough.

Solved entries (count: 4):
molecular string	ΔTm
Cc1cn([C@H]2C[C@H](O)[C@@H](CO)[C@@H]2O)c(=O)[nH]c1=O	-0.4
CO[C@H]1[C@H](CO)[C@@H](O)C[C@@H]1n1cc(C)c(=O)[nH]c1=O	-1.3
Cc1cn([C@H]2C[C@H](O)[C@@H](CO)[C@@H]2OCCCc2ccccc2)c(=O)[nH]c1=O	-2.8
COCCOCCOCCO[C@@H]1[C@H](O)[C@@H](CO)C[C@H]1n1cc(C)c(=O)[nH]c1=O	-1.1

Exercise: Identify ΔTm associated with the molecule `Cc1cn([C@H]2C[C@H](O)[C@@H](CO)[C@@H]2OCCCCN)c(=O)[nH]c1=O`
Solution: -1.4

###

experiment: Effect of compound on the nuclease resistance of 5'-d(TCC AGG TGT CCG TTT C)-3' in 10% heat-activated fetal calf serum (FCS) expressed as t1/2; assay type: functional
attribute measured: T1/2

Solved entries (count: 3):
molecular string	T1/2
Cc1cn([C@H]2C[C@H](O)[C@@H](CO)[C@@H]2OCCCc2ccccc2)c(=O)[nH]c1=O	> 48 h
Cc1cn([C@H]2C[C@H](O)[C@@H](CO)[C@@H]2OCCCCN)c(=O)[nH]c1=O	> 48 h
CO[C@H]1[C@H](CO)[C@@H](O)C[C@@H]1n1cc(C)c(=O)[nH]c1=O	20 h

Exercise: Identify T1/2 associated with the compound `Cc1cn([C@H]2C[C@H](O)[C@@H](CO)[C@@H]2O)c(=O)[nH]c1=O`
Solution: 14 h

###

test: Difference in melting temperature (Tm) between the modified DNA/RNA duplex and the unmodified wild type (WT) duplex per modification at 48 degree Celsius (5'-GCGttttttttttGCG-3'); type: functional
Flag rule - ΔTm less than 0.2 flags true (1); the remaining entries get false (0).

molecular string	label
CO[C@@H]1[C@H](O)[C@@H](CO)C[C@H]1n1cc(C)c(=O)[nH]c1=O	true (1)
Cc1cn([C@H]2C[C@H](O)[C@@H](CO)[C@@H]2OCCCCN)c(=O)[nH]c1=O	true (1)
Cc1cn([C@H]2C[C@H](O)[C@@H](CO)O2)c(=O)[nH]c1=O	false (0)
Cc1cn([C@H]2C[C@H](O)[C@@H](CO)[C@@H]2O)c(=O)[nH]c1=O	false (0)

Now for another entry.
Exercise: For this molecule, is ΔTm lower than 0.2? `CO[C@H]1[C@H](CO)[C@@H](O)C[C@@H]1n1cc(C)c(=O)[nH]c1=O`
Solution: true (1)
